All values here come from the RNAGym collection of RNA variant scans (doi:10.1073/pnas.2313332121).

B1: TPR 5TU (parent)
chain: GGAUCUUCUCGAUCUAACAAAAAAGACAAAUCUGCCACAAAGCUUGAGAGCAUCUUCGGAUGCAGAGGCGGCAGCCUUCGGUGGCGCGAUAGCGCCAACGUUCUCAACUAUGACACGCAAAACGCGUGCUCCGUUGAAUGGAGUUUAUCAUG

# Variants of: B1
# test-protocol: polymerase ribozyme fitness, log enrichment relative to wild type (log ratio); higher = more active; in vitro selection for triplet polymerase activity
Fewer inactive variants are shown than the library holds.
Please go through the items and note down their polymerase ribozyme fitness (log ratio).

Past entries and their recorded results:
>>> measured_result("U55A G62A C69G G71A")
"≤ -4.2"
>>> measured_result("A41C G67A G81U G94C A107C")
"≤ -4.2"

List polymerase ribozyme fitness (log ratio) for every entry below, keeping the order given.
1. G46A G68C A89C G124A
2. C85A A150C
3. C8A C32G A40U A52U A73U A91U
4. A73G U77C G88C

["≤ -4.2", "≤ -4.2", "≤ -4.2", "≤ -4.2"]
